B1: CLCN6 (parent)
chain: VGEIVGIITRHNLTYEFLQARLRQ

# Variants of: B1
# Test summary: protein stability index of a GFP-peptide fusion (GPS, HEK-293T) (PSI 1-6); higher = more stable;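 further: lentivirally expressed fusions sorted by FACS into six bins by GFP to DsRed ratio, PSI derived from sequencing read proportions per bin multiplied by bin number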
# Condition label: c terminus: a fixed tail appended
Quantity measured: protein stability index
Answers are plain numbers.

E16W 3.79
V5E 1.76
I7L 2.53
E16G 1.02
G2D 2.23

Hi team, please reply with protein stability index for each item in this list.
1. I8H
2. T9C
3. V1P
4. R23F
5. I4R
6. Q19S
7. G2C
8. L18M

## Output
[1.79, 2.71, 1.44, 2.58, 2.72, 2.49, 2.06, 2.33]

FYI, the data here is from the supplement of paper PMC10567573.
